Give pKd for every item shown.
# TARGET_OR_SYSTEM: HLA-B*53:01
# EXPERIMENT_DESCRIPTION: IEDB peptide-MHC binding, purified MHC/competitive/radioactivity; filed as Kd, often an IC50 or EC50 that approximates it; bounds were set here for any values at or beyond the usual limits of such assays
# MEASUREMENT_PARAMETERS: source organism: Dengue virus 4 Philippines/H241/1956
Numbers only, as −log10 of the molar value.

Below, each entry is followed by its recorded pKd result.
Measured pKd for this entry IPHDLMEFI on HLA-B*53:01: 8.19

Measured pKd for this entry MPLVMAWRT on HLA-B*53:01: 7.05

***
Measured pKd for this entry TPVHSWEDI on HLA-B*53:01: 5.65

----------
# TARGET_OR_SYSTEM: HLA-A*11:01
# EXPERIMENT_DESCRIPTION: IEDB peptide-MHC binding, purified MHC/competitive/radioactivity; filed as Kd, often an IC50 or EC50 that approximates it; bounds were set here for any values at or beyond the usual limits of such assays
# MEASUREMENT_PARAMETERS: source organism: Vaccinia virus Copenhagen
PARAMETER: Kd
Quote the value and follow it with the unit of measurement.

Measured Kd for this entry FILGIIITV on HLA-A*11:01: 19.6 µM

----------
# TARGET_OR_SYSTEM: HLA-A*69:01
# EXPERIMENT_DESCRIPTION: IEDB peptide-MHC binding, purified MHC/competitive/fluorescence; filed as Kd, often an IC50 or EC50 that approximates it; bounds were set here for any values at or beyond the usual limits of such assays
# MEASUREMENT_PARAMETERS: source organism: Entamoeba histolytica HM-1:IMSS
PARAMETER: Kd

So, IGKMNKHYK ? Its Kd was ≥ 20 µM

----------
# TARGET_OR_SYSTEM: HLA-B*46:01
# EXPERIMENT_DESCRIPTION: IEDB peptide-MHC binding, purified MHC/competitive/fluorescence; filed as Kd, often an IC50 or EC50 that approximates it; bounds were set here for any values at or beyond the usual limits of such assays
# MEASUREMENT_PARAMETERS: source organism: Entamoeba dispar SAW760
pKd: −log10 of the molar value.
PARAMETER: pKd

So, LMTHTWHAK ? Its pKd was ≤ 4.70

----------
# TARGET_OR_SYSTEM: HLA-B*07:02
# EXPERIMENT_DESCRIPTION: IEDB peptide-MHC binding, purified MHC/direct/fluorescence; filed as Kd, often an IC50 or EC50 that approximates it; bounds were set here for any values at or beyond the usual limits of such assays
# MEASUREMENT_PARAMETERS: source organism: Salmonella enterica subsp. enterica serovar Typhimurium
PARAMETER: pKd
One number for each entry, as −log10 of the molar value.

So, YLGPTIRVW ? Its pKd was 4.88

----------
# TARGET_OR_SYSTEM: HLA-A*02:16
# EXPERIMENT_DESCRIPTION: IEDB peptide-MHC binding, purified MHC/direct/fluorescence; filed as Kd, often an IC50 or EC50 that approximates it; bounds were set here for any values at or beyond the usual limits of such assays
# MEASUREMENT_PARAMETERS: source organism: Burkholderia mallei
PARAMETER: Kd

So, RVVRPWGSY ? Its Kd was ≥ 20 µM
